Parameter: Efficacy cell viability. Scope: all listed entries.
System: Vero-E6
Assay: Cytotoxicity counter screen (cell viability, CellTiter-Glo)
Type: cell-based
Details: uninfected Vero-E6, 72 h, CellTiter-Glo

compound: O=C(Nc1ccc([N+](=O)[O-])cc1Cl)c1cc(Cl)ccc1OC(=O)N1CCNCC1
Efficacy cell viability: −99.8
--
compound: CC(C)COC(=O)Oc1ccc(Cl)cc1C(=O)Nc1ccc([N+](=O)[O-])cc1Cl
Efficacy cell viability: −91.0
--
compound: CC(C)OC(=O)Oc1ccc(Cl)cc1C(=O)Nc1ccc([N+](=O)[O-])cc1Cl
Efficacy cell viability: −82.3
--
compound: O=C(Nc1ccc(C(F)(F)F)c(F)c1)c1cc(Br)ccc1O
Efficacy cell viability: −91.7
--
compound: O=C(Nc1ccc([N+](=O)[O-])cc1Cl)c1cc(Br)ccc1O
Efficacy cell viability: −94.8
--
compound: CCCCCCCC(=O)Oc1ccc(Cl)cc1C(=O)Nc1ccc([N+](=O)[O-])cc1Cl [Compound P2]
Efficacy cell viability: −95.8
--
compound: CCOP(=O)(OCC)Oc1ccc(Cl)cc1C(=O)Nc1ccc([N+](=O)[O-])cc1Cl
Efficacy cell viability: −90.6
--
compound: N#Cc1ccc(NC(=O)c2cc(Cl)ccc2O)c(Cl)c1
Efficacy cell viability: −99.6
